# assay_notes: Pharmacokinetic study, intravenous administration of aqueous solution of Working Example 1
# Assay type: in vivo, Sprague-Daweley IGS rats
# setup_conditions: Sprague-Dawley IGS, rat, blood, iv; male rats, i.v., aqueous solution of Working Example 1, dose of Compound (I) 3 mg/kg (Group 3), average of three
readout_kind: C0 (ng/mL)
# unit: ng/mL | format: bare number

Input line: GET /values?readout=C0&item= O=C(Nc1cc(C(F)(F)F)cc(C(F)(F)F)c1)c1cc(Cl)ccc1O [Compound (I)]
Output line: 4850

----------
# assay_notes: Pharmacokinetic study, intravenous administration of aqueous solution of Working Example 1
# Assay type: in vivo, Sprague-Daweley IGS rats
# setup_conditions: Sprague-Dawley IGS, rat, blood, iv; male rats, i.v., aqueous solution of Working Example 1, dose of Compound (I) 1 mg/kg (Group 1), average of three; read-out: AUC0-24
readout_kind: AUC(0-t) (ng·h/mL)
# unit: ng·h/mL | format: bare number

Input line: GET /values?readout=AUC(0-t)&item= `O=C(Nc1cc(C(F)(F)F)cc(C(F)(F)F)c1)c1cc(Cl)ccc1O`
Output line: 304
